- method: Follow-up solubility assessment (cosolvent mixtures, surfactants)
- Assay type: physicochemical
- conditions: Kolliphor ELP/ethanol/water 5/50/45 % w/v, aqueous with cosolvent or surfactant or cyclodextrin, thermodynamic from solid; ibudilast conc. 75 mg/mL

# molecularString, solubility (mg/mL)
data = [
    ("CC(C)C(=O)c1c(C(C)C)nn2ccccc12", 83.7),
]

###

- method: Initial solubility screen with various excipients
- Format: physicochemical
- conditions: water; ibudilast conc. 5 mg/mL

# compound, solubility / µg/mL
rows = [
    ("CC(C)C(=O)c1c(C(C)C)nn2ccccc12 [ibudilast]", 186),
]

###

- method: Follow-up solubility assessment (cosolvent mixtures, surfactants)
- Format: physicochemical
- conditions: organic solvent or mixture, thermodynamic from solid, propylene glycol/ethanol/glycerol 50/25/25 % w/v; ibudilast conc. 75 mg/mL
observationType: solubility (mg/mL)

# molecularString, observedMeasurement
records = [
    ("CC(C)C(=O)c1c(C(C)C)nn2ccccc12", 71.9),
]

###

- method: Follow-up solubility assessment (cosolvent mixtures, surfactants)
- Format: physicochemical
- conditions: Kolliphor ELP/water 80/20 % w/v, aqueous with cosolvent or surfactant or cyclodextrin, thermodynamic from solid; ibudilast conc. 75 mg/mL; less than 5 mL added due to viscosity of medium
observationType: solubility (mg/mL)

# molecularString, observedMeasurement
rows = [
    ("CC(C)C(=O)c1c(C(C)C)nn2ccccc12", 97.6),
]

###

- method: Follow-up solubility assessment (cosolvent mixtures, surfactants)
- Format: physicochemical
- conditions: aqueous with cosolvent or surfactant or cyclodextrin, thermodynamic from solid, propylene glycol/ethanol/water 50/25/25 % w/v; ibudilast conc. 75 mg/mL

# molecularString, solubility [mg/mL]
records = [
    ("CC(C)C(=O)c1c(C(C)C)nn2ccccc12", 71.4),
]

###

- method: Follow-up solubility assessment (cosolvent mixtures, surfactants)
- Assay type: physicochemical
- conditions: propylene glycol/water 50/50 % w/v, aqueous with cosolvent or surfactant or cyclodextrin, thermodynamic from solid; ibudilast conc. 75 mg/mL

# compound, solubility (µg/mL)
records = [
    ("CC(C)C(=O)c1c(C(C)C)nn2ccccc12 [ibudilast]", 5820),
]

###

- method: Initial solubility screen with various excipients
- Type: physicochemical
- conditions: aqueous with cosolvent or surfactant or cyclodextrin, thermodynamic from solid; SBE-β-CD 30% w/v; ibudilast conc. 25 mg/mL
observationType: solubility (mg/mL)

# compound, observedMeasurement
measured = [
    ("CC(C)C(=O)c1c(C(C)C)nn2ccccc12 [ibudilast]", 11.9),
]

###

- method: Initial solubility screen with various excipients
- Type: physicochemical
- conditions: aqueous with cosolvent or surfactant or cyclodextrin, thermodynamic from solid; Tween 80 30% w/v; ibudilast conc. 25 mg/mL

# molecularString, solubility / mg/mL
measured = [
    ("CC(C)C(=O)c1c(C(C)C)nn2ccccc12", 21.5),
]

###

- method: Initial solubility screen with various excipients
- Format: physicochemical
- conditions: organic solvent or mixture, thermodynamic from solid; glycerol 100% w/v; ibudilast conc. 25 mg/mL

# molecularString, solubility
records = [
    ("CC(C)C(=O)c1c(C(C)C)nn2ccccc12", "10.3 mg/mL"),
]

###

- method: Initial solubility screen with various excipients
- Type: physicochemical
- conditions: aqueous with cosolvent or surfactant or cyclodextrin, thermodynamic from solid; Kolliphor HS 15 50% w/v; ibudilast conc. 25 mg/mL
observationType: solubility

# compound, observationType, observedMeasurement
rows = [
    ("CC(C)C(=O)c1c(C(C)C)nn2ccccc12 [ibudilast]", "solubility", "22.8 mg/mL"),
]

###

- method: Initial solubility screen with various excipients
- Type: physicochemical
- conditions: aqueous buffer, thermodynamic from solid; citrate buffer pH 3, 50 mM; ibudilast conc. 5 mg/mL

# molecularString, unitAbbreviation, solubility
measured = [
    ("CC(C)C(=O)c1c(C(C)C)nn2ccccc12", "µg/mL", 375),
]

###

- method: Follow-up solubility assessment (cosolvent mixtures, surfactants)
- Type: physicochemical
- conditions: Tween 80/propylene glycol/water 30/50/20 % w/v, aqueous with cosolvent or surfactant or cyclodextrin, thermodynamic from solid; ibudilast conc. 75 mg/mL
observationType: solubility (mg/mL)

# molecularString, unitAbbreviation, observedMeasurement
records = [
    ("CC(C)C(=O)c1c(C(C)C)nn2ccccc12", "mg/mL", 76.3),
]

###

- method: Initial solubility screen with various excipients
- Format: physicochemical
- conditions: aqueous with cosolvent or surfactant or cyclodextrin, thermodynamic from solid; SBE-β-CD 10% w/v; ibudilast conc. 25 mg/mL

# compound, solubility / µg/mL
records = [
    ("CC(C)C(=O)c1c(C(C)C)nn2ccccc12 [ibudilast]", 3790),
]

###

- method: Follow-up solubility assessment (cosolvent mixtures, surfactants)
- Assay type: physicochemical
- conditions: Tween 80/water 80/20 % w/v, aqueous with cosolvent or surfactant or cyclodextrin, thermodynamic from solid; ibudilast conc. 75 mg/mL; less than 5 mL added due to viscosity of medium

# compound, solubility, mg/mL
rows = [
    ("CC(C)C(=O)c1c(C(C)C)nn2ccccc12 [ibudilast]", 84.4),
]

###

- method: Initial solubility screen with various excipients
- Assay type: physicochemical
- conditions: aqueous with cosolvent or surfactant or cyclodextrin, thermodynamic from solid; Kolliphor RH 40 30% w/v; ibudilast conc. 25 mg/mL

# molecularString, unitAbbreviation, solubility
rows = [
    ("CC(C)C(=O)c1c(C(C)C)nn2ccccc12", "mg/mL", 29.5),
]

###

- method: Follow-up solubility assessment (cosolvent mixtures, surfactants)
- Assay type: physicochemical
- conditions: Kolliphor ELP/propylene glycol/water 30/50/20 % w/v, aqueous with cosolvent or surfactant or cyclodextrin, thermodynamic from solid; ibudilast conc. 75 mg/mL

# molecularString, unitAbbreviation, solubility
measured = [
    ("CC(C)C(=O)c1c(C(C)C)nn2ccccc12", "mg/mL", 72.9),
]

###

- method: Initial solubility screen with various excipients
- Format: physicochemical
- conditions: aqueous buffer, thermodynamic from solid; acetate buffer pH 5, 50 mM; ibudilast conc. 5 mg/mL
observationType: solubility

# compound, observationType, observedMeasurement
records = [
    ("CC(C)C(=O)c1c(C(C)C)nn2ccccc12 [ibudilast]", "solubility", "175 µg/mL"),
]

###

- method: Initial solubility screen with various excipients
- Type: physicochemical
- conditions: aqueous with cosolvent or surfactant or cyclodextrin, thermodynamic from solid; Tween 80 5% w/v; ibudilast conc. 25 mg/mL
observationType: solubility (µg/mL)

# molecularString, observedMeasurement
data = [
    ("CC(C)C(=O)c1c(C(C)C)nn2ccccc12", 4790),
]

###

- method: Initial solubility screen with various excipients
- Type: physicochemical
- conditions: aqueous with cosolvent or surfactant or cyclodextrin, thermodynamic from solid; HP-β-CD 30% w/v; ibudilast conc. 25 mg/mL

# molecularString, solubility [µg/mL]
measured = [
    ("CC(C)C(=O)c1c(C(C)C)nn2ccccc12", 6720),
]

###

- method: Initial solubility screen with various excipients
- Type: physicochemical
- conditions: aqueous buffer, thermodynamic from solid; borate buffer pH 9, 50 mM; ibudilast conc. 5 mg/mL
observationType: solubility

# molecularString, observedMeasurement
records = [
    ("CC(C)C(=O)c1c(C(C)C)nn2ccccc12", "171 µg/mL"),
]

###

- method: Follow-up solubility assessment (cosolvent mixtures, surfactants)
- Type: physicochemical
- conditions: Kolliphor ELP/water 30/70 % w/v, aqueous with cosolvent or surfactant or cyclodextrin, thermodynamic from solid; ibudilast conc. 75 mg/mL
observationType: solubility (mg/mL)

# molecularString, observedMeasurement
measured = [
    ("CC(C)C(=O)c1c(C(C)C)nn2ccccc12", 42.7),
]

###

- method: Initial solubility screen with various excipients
- Type: physicochemical
- conditions: organic solvent or mixture, thermodynamic from solid; propylene glycol 100% w/v; more ibudilast added up to 50 mg/mL after 2 h tumbling; solubility may be higher

# molecularString, unitAbbreviation, solubility
rows = [
    ("CC(C)C(=O)c1c(C(C)C)nn2ccccc12", "mg/mL", 52.9),
]

###

- method: Initial solubility screen with various excipients
- Format: physicochemical
- conditions: aqueous with cosolvent or surfactant or cyclodextrin, thermodynamic from solid; ethanol 25% w/v; ibudilast conc. 25 mg/mL
observationType: solubility

# molecularString, observationType, observedMeasurement
measured = [
    ("CC(C)C(=O)c1c(C(C)C)nn2ccccc12", "solubility", "4150 µg/mL"),
]

###

- method: Follow-up solubility assessment (cosolvent mixtures, surfactants)
- Format: physicochemical
- conditions: Tween 80/propylene glycol/water 5/50/45 % w/v, aqueous with cosolvent or surfactant or cyclodextrin, thermodynamic from solid; ibudilast conc. 75 mg/mL
observationType: solubility (mg/mL)

# molecularString, unitAbbreviation, observedMeasurement
rows = [
    ("CC(C)C(=O)c1c(C(C)C)nn2ccccc12", "mg/mL", 14.8),
]

###

- method: Follow-up solubility assessment (cosolvent mixtures, surfactants)
- Format: physicochemical
- conditions: PEG 400/water 50/50 % w/v cosolvent mixture, aqueous with cosolvent or surfactant or cyclodextrin, thermodynamic from solid, PEG 400/water 50/50 % w/v; ibudilast conc. 75 mg/mL
- Experimental: Solubility of ibudilast was assessed using cosolvent mixtures with and without water, increased surfactant concentrations, or a combination of surfactant and cosolvents as shown in the following table.
observationType: solubility (µg/mL)

# molecularString, observedMeasurement
rows = [
    ("CC(C)C(=O)c1c(C(C)C)nn2ccccc12", 9220),
]
